All values here come from ChEMBL document CHEMBL1145271.

- assay-target: Kappa-type opioid receptor (Homo sapiens)
- Sequence (P41145 whole entry): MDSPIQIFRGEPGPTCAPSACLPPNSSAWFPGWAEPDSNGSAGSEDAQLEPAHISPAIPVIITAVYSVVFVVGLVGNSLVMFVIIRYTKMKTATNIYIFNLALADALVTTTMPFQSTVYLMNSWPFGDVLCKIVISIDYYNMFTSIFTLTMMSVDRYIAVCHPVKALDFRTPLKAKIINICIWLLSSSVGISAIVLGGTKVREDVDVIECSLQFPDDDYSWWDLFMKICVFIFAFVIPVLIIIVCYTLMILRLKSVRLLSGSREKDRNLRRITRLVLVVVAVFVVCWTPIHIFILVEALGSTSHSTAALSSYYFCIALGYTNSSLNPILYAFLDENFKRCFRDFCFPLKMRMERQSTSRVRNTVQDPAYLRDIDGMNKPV
- test: Activation of human Opioid receptor kappa 1 expressed in chinese hamster ovary cells to enhance [35S]GTP-gamma-S, binding compared to U50,488H
- Assay type: functional, cell-based
Record form. Attribute: Efficacy. Fill in for each entry.
Answers are plain numbers, in %.

Before answering, review these 5 worked examples.
compound: CCC(=O)O[C@H]1C[C@@H](C(=O)OC)[C@]2(C)CC[C@H]3C(=O)O[C@H](c4ccoc4)C[C@]3(C)[C@H]2C1=O
Efficacy, %: 94
--
compound: COC(=O)[C@@H]1C[C@H](O)C(=O)[C@H]2[C@@]1(C)CC[C@H]1C(=O)O[C@H](c3ccoc3)C[C@]21C
Efficacy, %: 98
--
compound: COC(=O)[C@@H]1C[C@H](OC)C(=O)[C@H]2[C@@]1(C)CC[C@H]1C(=O)O[C@H](c3ccoc3)C[C@]21C
Efficacy, %: 98
--
compound: C=CCO[C@H]1C[C@@H](C(=O)OC)[C@]2(C)CCC3C(=O)O[C@H](c4ccoc4)C[C@]3(C)[C@H]2C1=O (some centres not stated)
Efficacy, %: 106
--
compound: CCCO[C@H]1C[C@@H](C(=O)OC)[C@]2(C)CC[C@H]3C(=O)O[C@H](c4ccoc4)C[C@]3(C)[C@H]2C1=O [SALVINORIN A PROPYL ETHER]
Efficacy, %: 100

Please go through the list and note Efficacy for each compound.
1. CNC(=O)O[C@H]1C[C@@H](C(=O)OC)[C@]2(C)CC[C@H]3C(=O)O[C@H](c4ccoc4)C[C@]3(C)[C@H]2C1=O
2. COC(=O)[C@@H]1C[C@H](OC(N)=O)C(=O)[C@H]2[C@@]1(C)CC[C@H]1C(=O)O[C@H](c3ccoc3)C[C@]21C

1. 81
2. 99
